Measured IC50 by item
- Target entity: USP25 (USP25-His6, Boston Biochem E-546) (Homo sapiens, UniProt Q9UHP3)
- Construct: His6; purchased Boston Biochem E-546
- Sequence (Q9UHP3 1-1055): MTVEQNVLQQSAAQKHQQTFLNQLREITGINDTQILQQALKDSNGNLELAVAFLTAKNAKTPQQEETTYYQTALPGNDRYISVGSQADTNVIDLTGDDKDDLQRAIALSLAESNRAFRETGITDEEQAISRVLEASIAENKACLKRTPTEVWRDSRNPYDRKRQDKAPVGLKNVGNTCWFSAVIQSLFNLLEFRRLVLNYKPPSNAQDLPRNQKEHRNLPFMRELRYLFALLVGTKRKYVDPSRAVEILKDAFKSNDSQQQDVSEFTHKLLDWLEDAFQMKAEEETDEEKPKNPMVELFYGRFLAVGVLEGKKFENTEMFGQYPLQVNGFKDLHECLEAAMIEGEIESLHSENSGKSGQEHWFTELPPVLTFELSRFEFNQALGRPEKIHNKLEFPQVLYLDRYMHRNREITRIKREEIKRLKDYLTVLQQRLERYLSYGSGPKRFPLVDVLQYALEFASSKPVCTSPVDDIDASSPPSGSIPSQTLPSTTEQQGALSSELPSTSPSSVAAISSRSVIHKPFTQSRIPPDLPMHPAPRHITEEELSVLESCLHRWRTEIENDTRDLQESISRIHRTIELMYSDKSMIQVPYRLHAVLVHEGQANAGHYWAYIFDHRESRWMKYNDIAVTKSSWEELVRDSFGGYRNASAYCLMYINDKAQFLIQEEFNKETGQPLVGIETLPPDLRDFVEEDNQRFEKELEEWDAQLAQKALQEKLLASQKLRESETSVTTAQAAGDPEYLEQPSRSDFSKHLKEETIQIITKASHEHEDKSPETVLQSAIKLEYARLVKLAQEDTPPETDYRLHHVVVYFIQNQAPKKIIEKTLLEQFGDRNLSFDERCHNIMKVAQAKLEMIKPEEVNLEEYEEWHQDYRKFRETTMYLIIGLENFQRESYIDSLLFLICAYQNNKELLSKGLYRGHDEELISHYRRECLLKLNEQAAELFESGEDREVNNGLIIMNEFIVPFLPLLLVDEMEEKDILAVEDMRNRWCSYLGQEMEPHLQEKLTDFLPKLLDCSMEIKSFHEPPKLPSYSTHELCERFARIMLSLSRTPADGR
- Procedure details: Ubiquitin-Rhodamine 110 Assay for USP25 Activity, Example A-2
- Assay type: biochemical
- Condition parameters: Ub-Rh110 assay, Example A-2; read-out: USP25 A-2 IC50 range
- Description: The assay was performed in a final volume of 9 μL in assay buffer containing 20 mM Tris-HCl (pH 8.0, (1M Tris-HCl, pH 8.0 solution; Corning 46-031-CM)), 3 mM BME (2-Mercaptoethanol; Sigma 63689-25ML-F), 0.03% BGG (0.22 μM filtered, Sigma, G7516-25G), and 0.01% Triton X-100 (Sigma, T9284-10L). […] Fluorescence was read on the Envision (Excitation at 485 nm and Emission at 535 nm; Perkin Elmer) or on the PheraSTAR (Excitation at 485 nm and Emission at 535 nm; BMG Labtech). […]
Measure: IC50

compound="Cc1cc(C)c2c(N)c(C(=O)N[C@H]3COc4cc(N5CC6CNCC(C5)O6)ccc4C3)sc2n1 [Example 2-20]" result="1 to 50 nM"
compound="Cc1cnc2c(N)c(C(=O)N[C@@H]3COc4cc(N5CCNCC5)ccc4C3)sc2n1 (single isomer, unassigned) [Example 1-22]" result="> 2000 nM"
compound="Cc1ccc2c(N)c(C(=O)N[C@H]3COc4cc(N5CCNCC5)c(OC(F)(F)F)cc4C3)sc2n1 (single isomer, unassigned) [Example 1-31]" result="> 2000 nM"
compound="Cc1ccc2c(N)c(C(=O)N[C@@H]3COc4cc(N5CCNCC5)c(F)cc4C3)sc2n1 [Example 1-36]" result="> 2000 nM"

====

- Target entity: USP28 (USP28-5(1-1077)-TEV-6*His; LifeSensors) (Homo sapiens, UniProt Q96RU2)
- Construct: construct USP28 (USP28-5(1-1077)-TEV-6*His; LifeSensors); TEV cleavage site (C); 6xHis (C); purchased LifeSensors
- Sequence (Q96RU2 1-1077): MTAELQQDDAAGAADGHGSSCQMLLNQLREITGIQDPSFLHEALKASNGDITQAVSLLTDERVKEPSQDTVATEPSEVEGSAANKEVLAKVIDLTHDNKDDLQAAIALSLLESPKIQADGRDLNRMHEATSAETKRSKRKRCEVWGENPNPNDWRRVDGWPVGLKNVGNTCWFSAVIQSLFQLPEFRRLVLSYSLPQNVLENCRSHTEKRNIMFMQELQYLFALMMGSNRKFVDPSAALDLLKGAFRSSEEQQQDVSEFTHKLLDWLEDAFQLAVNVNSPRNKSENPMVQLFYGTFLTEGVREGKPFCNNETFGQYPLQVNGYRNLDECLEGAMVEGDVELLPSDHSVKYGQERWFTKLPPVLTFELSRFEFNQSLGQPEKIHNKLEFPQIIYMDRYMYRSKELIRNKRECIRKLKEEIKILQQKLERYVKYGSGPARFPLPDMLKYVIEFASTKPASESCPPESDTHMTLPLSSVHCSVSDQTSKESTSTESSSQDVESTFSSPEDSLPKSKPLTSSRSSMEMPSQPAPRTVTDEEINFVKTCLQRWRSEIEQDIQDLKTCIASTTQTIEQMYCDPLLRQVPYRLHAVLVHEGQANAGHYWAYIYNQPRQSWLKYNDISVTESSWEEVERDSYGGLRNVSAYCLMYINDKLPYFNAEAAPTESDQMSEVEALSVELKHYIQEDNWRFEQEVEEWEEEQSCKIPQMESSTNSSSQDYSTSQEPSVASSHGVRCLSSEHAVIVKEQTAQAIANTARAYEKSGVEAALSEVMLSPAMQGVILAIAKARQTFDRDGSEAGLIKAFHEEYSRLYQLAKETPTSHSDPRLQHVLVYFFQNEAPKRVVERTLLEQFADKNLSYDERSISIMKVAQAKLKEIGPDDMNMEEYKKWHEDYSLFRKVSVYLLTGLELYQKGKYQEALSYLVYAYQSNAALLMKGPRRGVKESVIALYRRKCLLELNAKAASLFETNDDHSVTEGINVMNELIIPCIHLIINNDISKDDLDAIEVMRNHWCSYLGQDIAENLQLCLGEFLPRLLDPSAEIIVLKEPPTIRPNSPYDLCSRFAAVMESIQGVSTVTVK
- Procedure details: Ubiquitin-Rhodamine 110 Assay for USP28 Activity, Example A-1(b)
- Format: biochemical
- Condition parameters: Ubiquitin-Rhodamine 110 assay, Example A-1(b)
Measure: USP28 A-1(b) IC50 range

compound=Cc1ccc2c(N)c(C(=O)N[C@H]3COc4cc(N5CC[C@H](C(=O)O)C5)ccc4C3)sc2n1 result="++ (0.2-2 μM)"
compound=CC(=O)Nc1cccc(CNc2ccc(C(=O)N[C@H]3COc4cc(N5CCNCC5)ccc4C3)cn2)c1 result="+ (>2 μM)"
compound=Cc1cnc2c(N)c(C(=O)N[C@H]3CCc4cc(N5CCCNCC5)ccc4C3)sc2n1 result="++ (0.2-2 μM)"
compound=Cc1cc(C)c2c(N)c(C(=O)N[C@H]3COc4cc(N5CC6CC(C5)N6)cc(F)c4C3)sc2n1 result="+++ (0.05-0.2 μM)"
compound=Cc1ccc2c(N)c(C(=O)N[C@H]3COc4cc(N5CCNC6(COC6)C5)ccc4C3)sc2n1 result="++ (0.2-2 μM)"
compound=Cc1ccc2c(N)c(C(=O)N[C@H]3COc4cc(N5CC6CNCC(C5)O6)cc(F)c4C3)sc2n1 result="++++ (0.001-0.05 μM)"
compound="Cc1nc2sc(C(=O)N[C@@H]3CCc4cc(N5CC6CCC(C5)N6)ccc4C3)c(N)c2cc1F (single isomer, unassigned)" result="+++ (0.05-0.2 μM)"
compound=C[C@H](Nc1ccc(C(=O)N[C@H]2COc3cc(N4CCNCC4)ccc3C2)cn1)c1ccccc1 result="+ (>2 μM)"
compound="Cc1cnc2c(N)c(C(=O)N[C@H]3CCc4cc(N5C[C@@H]6C[C@H]5CN6)ccc4C3)sc2n1 (single isomer, unassigned)" result="++ (0.2-2 μM)"
compound="CN[C@@H]1CCN(c2ccc3c(c2)CC[C@@H](NC(=O)c2sc4nc(C)cnc4c2N)C3)C1 (single isomer, unassigned)" result="+ (>2 μM)"
compound=Cc1cnc2c(N)c(C(=O)N[C@H]3COc4cc(N5CCNCC5)cc(F)c4C3)sc2n1 result="+++ (0.05-0.2 μM)"
compound="Cc1ccc2c(N)c(C(=O)N[C@@H]3CCc4cc(N5CCNCC5)ccc4C3)sc2n1 (single isomer, unassigned)" result="++ (0.2-2 μM)"
compound=Cc1cnc2c(N)c(C(=O)N[C@H]3CCc4cc(N5CCNCC(F)(F)C5)ccc4C3)sc2n1 result="+++ (0.05-0.2 μM)"
compound=Cc1ccc2c(N)c(C(=O)N[C@H]3COc4cc(N5CC6COCC(C5)C6(F)F)ccc4C3)sc2n1 result="+++ (0.05-0.2 μM)"
compound=Cc1ccc2c(N)c(C(=O)N[C@H]3COc4cc([C@H]5CCNC[C@H]5O)ccc4C3)sc2n1 result="++++ (0.001-0.05 μM)"
compound=Cc1cnc2c(N)c(C(=O)N[C@@H]3CCc4cc(N5CC6CNCC(C5)O6)ccc4C3)sc2n1 result="+ (>2 μM)"
compound="Cc1cnc2c(N)c(C(=O)N[C@@H]3CCc4cc(N5CC6CCC(C5)N6)cc(F)c4C3)sc2n1 (single isomer, unassigned)" result="+++ (0.05-0.2 μM)"
compound="Cc1cnc2c(N)c(C(=O)N[C@@H]3CCc4cc(N5CC6CCC(C5)N6)ccc4C3)sc2n1 (single isomer, unassigned)" result="+ (>2 μM)"
compound=O=C(N[C@H]1COc2cc(N3CCNCC3)ccc2C1)c1ccc(NCc2cccnc2)nc1 result="+ (>2 μM)"
compound=Cc1ccc2c(N)c(C(=O)N[C@@H]3COc4cc(N5C[C@@H]6CNC[C@H]6C5)ccc4C3)sc2n1 result="++ (0.2-2 μM)"
compound="Cc1ccc2c(N)c(C(=O)N[C@@H]3CCc4cc(N5CCNCC5)cc(F)c4C3)sc2n1 (single isomer, unassigned)" result="++ (0.2-2 μM)"
compound="Cc1nc2sc(C(=O)N[C@H]3CCc4cc(N5CC6CCC(C5)N6)ccc4C3)c(N)c2cc1F (single isomer, unassigned)" result="++ (0.2-2 μM)"
compound=O=C(N[C@H]1COc2cc(N3CC4CCC(C3)N4)ccc2C1)c1cnc2c(c1)CCCN2 result="++ (0.2-2 μM)"
compound=Cc1ccc2c(N)c(C(=O)N[C@H]3COc4cc(C5(F)CCNCC5)ccc4C3)sc2n1 result="++++ (0.001-0.05 μM)"
compound="COc1ccc2c(N)c(C(=O)N[C@H]3CCc4cc(N5CC6CCC(C5)N6)ccc4C3)sc2n1 (single isomer, unassigned)" result="++ (0.2-2 μM)"
compound="CCn1ccc2cc(C(=O)N[C@H]3CCc4cc(N5CC6CCC(C5)N6)ccc4C3)nnc21 (single isomer, unassigned)" result="+ (>2 μM)"
compound=CCc1cnc2sc(C(=O)N[C@@H]3COc4cc(N5CCNCC5)ccc4C3)c(N)c2n1 result="+ (>2 μM)"
compound=Cc1ccc2c(N)c(C(=O)N[C@H]3COc4cc(N5CCNCC5)cc(Cl)c4C3)sc2n1 result="+++ (0.05-0.2 μM)"
